Target: Phosphatidylinositol 4,5-bisphosphate 3-kinase catalytic subunit beta isoform (Homo sapiens)
Experiment: Inhibition of PI3K-beta (unknown origin) at 10 nM after 40 mins by ADP-Glo luminescent kinase assay
Sequence (P42338 whole entry, looked up, canonical isoform): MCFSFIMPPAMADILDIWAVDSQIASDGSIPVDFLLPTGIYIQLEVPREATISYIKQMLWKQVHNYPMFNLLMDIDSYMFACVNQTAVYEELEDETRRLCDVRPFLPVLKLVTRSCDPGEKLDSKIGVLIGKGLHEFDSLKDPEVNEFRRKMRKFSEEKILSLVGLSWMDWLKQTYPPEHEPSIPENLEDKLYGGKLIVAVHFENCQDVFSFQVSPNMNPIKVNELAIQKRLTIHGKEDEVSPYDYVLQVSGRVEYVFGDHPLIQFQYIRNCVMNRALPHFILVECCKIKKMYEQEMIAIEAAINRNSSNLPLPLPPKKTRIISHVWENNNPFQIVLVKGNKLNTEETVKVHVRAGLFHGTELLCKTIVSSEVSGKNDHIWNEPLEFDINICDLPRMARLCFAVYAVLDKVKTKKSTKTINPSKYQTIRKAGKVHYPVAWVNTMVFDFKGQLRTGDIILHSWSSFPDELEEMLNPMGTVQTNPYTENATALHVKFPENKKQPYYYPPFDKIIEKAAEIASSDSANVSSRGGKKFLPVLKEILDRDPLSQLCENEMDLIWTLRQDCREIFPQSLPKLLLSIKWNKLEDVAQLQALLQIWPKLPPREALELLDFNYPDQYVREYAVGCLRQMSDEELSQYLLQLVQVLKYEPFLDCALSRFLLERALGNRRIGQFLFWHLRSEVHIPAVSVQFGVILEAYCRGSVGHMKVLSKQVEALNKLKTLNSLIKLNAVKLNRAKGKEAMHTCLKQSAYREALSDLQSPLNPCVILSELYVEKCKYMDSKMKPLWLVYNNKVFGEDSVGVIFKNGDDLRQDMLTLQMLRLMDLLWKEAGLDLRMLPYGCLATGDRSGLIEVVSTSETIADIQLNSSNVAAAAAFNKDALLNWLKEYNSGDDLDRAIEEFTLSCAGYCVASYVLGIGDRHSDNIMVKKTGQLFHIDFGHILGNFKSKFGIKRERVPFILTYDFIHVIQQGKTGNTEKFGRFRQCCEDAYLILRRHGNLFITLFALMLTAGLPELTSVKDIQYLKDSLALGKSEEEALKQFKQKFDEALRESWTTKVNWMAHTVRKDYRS
Readings of inhibition for the listed compounds
experimentalReadout: inhibition (%)

| moleculeSmiles | experimentalReadout | resultValue |
| --- | --- | --- |
| COc1ncc(-c2ccc3nccc(C#CCN4CCCCC4)c3c2)cc1NS(=O)(=O)c1ccc(F)cc1F | inhibition | 1.4 |
| COc1ncc(-c2ccc3nccc(C#CCN4CCN(S(C)(=O)=O)CC4)c3c2)cc1NS(=O)(=O)c1ccc(F)cc1F | inhibition | 69 |
| COc1ncc(-c2ccc3nccc(C#CCN(C4CCCCC4)C4CCCCC4)c3c2)cc1NS(=O)(=O)c1ccc(F)cc1F | inhibition | 13 |

###

Biological target: Phosphatidylinositol 4,5-bisphosphate 3-kinase catalytic subunit beta isoform (Homo sapiens, UniProt P42338)
Test: Inhibition of PI3K-beta (unknown origin) after 40 mins by ADP-Glo luminescent kinase assay
Sequence (P42338 whole entry, canonical isoform): as the sequence (P42338 whole entry, looked up, canonical isoform) above
pIC50: −log10 of the molar value.
experimentalReadout: pIC50

| moleculeSmiles | resultValue |
| --- | --- |
| COc1ncc(-c2ccc3nccc(C#CCN4CCN(S(C)(=O)=O)CC4)c3c2)cc1NS(=O)(=O)c1ccc(F)cc1F | 8.03 |
| CCOC(=O)N1CCN(CC#Cc2ccnc3ccc(-c4cnc(OC)c(NS(=O)(=O)c5ccc(F)cc5F)c4)cc23)CC1 | 7.64 |

###

Biological target: Phosphatidylinositol 4,5-bisphosphate 3-kinase catalytic subunit gamma isoform (Homo sapiens, UniProt P48736)
Sequence (P48736 whole entry, looked up, canonical isoform): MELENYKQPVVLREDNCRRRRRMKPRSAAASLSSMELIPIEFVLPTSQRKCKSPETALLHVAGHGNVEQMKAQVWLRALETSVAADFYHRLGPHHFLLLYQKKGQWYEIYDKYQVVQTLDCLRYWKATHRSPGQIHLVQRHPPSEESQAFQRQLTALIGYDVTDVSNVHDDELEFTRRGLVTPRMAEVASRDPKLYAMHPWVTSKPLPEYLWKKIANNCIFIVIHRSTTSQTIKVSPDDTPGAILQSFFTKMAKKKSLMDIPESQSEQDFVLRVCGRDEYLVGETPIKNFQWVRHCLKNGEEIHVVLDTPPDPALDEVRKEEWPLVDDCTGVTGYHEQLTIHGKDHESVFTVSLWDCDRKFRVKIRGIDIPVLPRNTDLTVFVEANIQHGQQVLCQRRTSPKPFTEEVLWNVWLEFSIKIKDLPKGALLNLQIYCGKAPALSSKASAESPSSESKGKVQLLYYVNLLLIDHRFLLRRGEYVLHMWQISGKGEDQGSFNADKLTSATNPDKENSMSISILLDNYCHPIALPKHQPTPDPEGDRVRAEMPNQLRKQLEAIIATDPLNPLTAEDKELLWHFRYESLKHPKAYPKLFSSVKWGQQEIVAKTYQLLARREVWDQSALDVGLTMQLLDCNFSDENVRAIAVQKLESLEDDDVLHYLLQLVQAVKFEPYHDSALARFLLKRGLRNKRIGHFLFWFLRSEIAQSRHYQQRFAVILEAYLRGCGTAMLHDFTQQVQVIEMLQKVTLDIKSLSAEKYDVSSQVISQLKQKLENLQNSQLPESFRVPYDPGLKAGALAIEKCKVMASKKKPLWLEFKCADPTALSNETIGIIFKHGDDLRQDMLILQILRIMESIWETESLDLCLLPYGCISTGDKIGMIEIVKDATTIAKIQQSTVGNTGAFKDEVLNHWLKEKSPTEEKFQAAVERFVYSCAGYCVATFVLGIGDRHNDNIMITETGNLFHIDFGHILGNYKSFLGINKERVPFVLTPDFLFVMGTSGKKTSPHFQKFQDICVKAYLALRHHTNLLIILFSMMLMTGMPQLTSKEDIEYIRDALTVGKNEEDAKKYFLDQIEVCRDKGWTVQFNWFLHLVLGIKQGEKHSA
Experiment: Inhibition of PI3K-gamma (unknown origin) at 10 nM after 40 mins by ADP-Glo luminescent kinase assay
Readings of inhibition for the listed molecules

| molecule | inhibition, % |
| --- | --- |
| CCOC(=O)N1CCN(CC#Cc2ccnc3ccc(-c4cnc(OC)c(NS(=O)(=O)c5ccc(F)cc5F)c4)cc23)CC1 | 82 |
| COc1ncc(-c2ccc3nccc(C#CCN4CCCCC4)c3c2)cc1NS(=O)(=O)c1ccc(F)cc1F | 55 |
| COc1ncc(-c2ccc3nccc(C#CCN(C)C)c3c2)cc1NS(=O)(=O)c1ccc(F)cc1 | 70 |
| CCN(CC)CC#Cc1ccnc2ccc(-c3cnc(OC)c(NS(=O)(=O)c4ccc(F)cc4F)c3)cc12 | 68 |
| COc1ncc(-c2ccc3nccc(C#CCN4CCN(S(C)(=O)=O)CC4)c3c2)cc1NS(=O)(=O)c1ccc(F)cc1F | 95 |
| COc1ncc(-c2ccc3nccc(C#CCN4CCC(C)CC4)c3c2)cc1NS(=O)(=O)c1ccc(F)cc1F | 49 |
| COc1ncc(-c2ccc3nccc(C#CCN(C4CCCCC4)C4CCCCC4)c3c2)cc1NS(=O)(=O)c1ccc(F)cc1F | 10 |
| COc1ncc(-c2ccc3nccc(C#CCN4CCOCC4)c3c2)cc1NS(=O)(=O)c1ccc(F)cc1F | 96 |
| COc1ncc(-c2ccc3nccc(C#CCN(C)C)c3c2)cc1NS(=O)(=O)c1ccc(F)cc1F | 81 |
| COc1ncc(-c2ccc3nccc(C#CCN4CCCCC4C)c3c2)cc1NS(=O)(=O)c1ccc(F)cc1F (stereo unspecified) | 59 |
| COc1ncc(-c2ccc3nccc(C#CCN(C)CCO)c3c2)cc1NS(=O)(=O)c1ccc(F)cc1F | 90 |

###

Molecular target: Phosphatidylinositol 4,5-bisphosphate 3-kinase catalytic subunit delta isoform (Homo sapiens) (UniProt O00329)
Sequence (whole entry): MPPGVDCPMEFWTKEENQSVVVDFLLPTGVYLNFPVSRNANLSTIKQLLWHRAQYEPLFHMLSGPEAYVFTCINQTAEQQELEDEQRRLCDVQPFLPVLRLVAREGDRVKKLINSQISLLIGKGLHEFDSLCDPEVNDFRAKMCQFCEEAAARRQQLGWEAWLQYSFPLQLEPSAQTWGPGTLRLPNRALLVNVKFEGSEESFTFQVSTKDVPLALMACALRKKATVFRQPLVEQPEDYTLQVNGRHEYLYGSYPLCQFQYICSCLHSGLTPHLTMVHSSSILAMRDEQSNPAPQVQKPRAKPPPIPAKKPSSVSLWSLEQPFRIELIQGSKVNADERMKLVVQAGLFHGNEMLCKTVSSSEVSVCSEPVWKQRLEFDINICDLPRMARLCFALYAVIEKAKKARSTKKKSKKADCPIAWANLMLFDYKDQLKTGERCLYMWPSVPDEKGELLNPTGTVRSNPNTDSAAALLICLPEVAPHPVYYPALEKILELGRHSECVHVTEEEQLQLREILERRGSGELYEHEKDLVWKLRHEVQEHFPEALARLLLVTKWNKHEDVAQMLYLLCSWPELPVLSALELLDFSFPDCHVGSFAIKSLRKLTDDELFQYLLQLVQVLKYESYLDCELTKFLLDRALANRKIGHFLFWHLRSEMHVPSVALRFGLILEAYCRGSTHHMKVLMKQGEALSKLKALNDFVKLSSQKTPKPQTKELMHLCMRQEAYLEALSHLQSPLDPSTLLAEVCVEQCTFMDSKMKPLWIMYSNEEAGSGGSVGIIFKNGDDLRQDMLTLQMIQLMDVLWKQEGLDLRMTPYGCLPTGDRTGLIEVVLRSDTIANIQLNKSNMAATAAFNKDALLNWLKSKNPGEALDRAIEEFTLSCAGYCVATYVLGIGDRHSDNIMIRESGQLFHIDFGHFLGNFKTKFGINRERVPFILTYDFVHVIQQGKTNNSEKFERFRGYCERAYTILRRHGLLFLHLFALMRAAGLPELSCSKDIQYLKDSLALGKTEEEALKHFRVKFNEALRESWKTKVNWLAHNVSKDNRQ
Assay: Inhibition of PI3K-delta (unknown origin) using PIP2 as substrate at 10 nM incubated for 1 hr by Kinase-Glo luminescent kinase assay
Give T when the value for inhibition is at least 8%. Give F when it is less.

| compound | assignedClass |
| --- | --- |
| CCOC(=O)N1CCN(CC#Cc2ccnc3ccc(-c4cnc(OC)c(NS(=O)(=O)c5ccc(F)cc5F)c4)cc23)CC1 | T |
| COc1ncc(-c2ccc3nccc(C#CCN4CCCCC4)c3c2)cc1NS(=O)(=O)c1ccc(F)cc1F | F |
| COc1ncc(-c2ccc3nccc(C#CCN4CCC(C)CC4)c3c2)cc1NS(=O)(=O)c1ccc(F)cc1F | F |
| COc1ncc(-c2ccc3nccc(C#CCN4CCN(S(C)(=O)=O)CC4)c3c2)cc1NS(=O)(=O)c1ccc(F)cc1F | T |
| COc1ncc(-c2ccc3nccc(C#CCN4CCCCC4C)c3c2)cc1NS(=O)(=O)c1ccc(F)cc1F (stereo unspecified) | F |
| COc1ncc(-c2ccc3nccc(C#CCN(C)C)c3c2)cc1NS(=O)(=O)c1ccc(F)cc1 | T |

###

Readings of pIC50 for the listed compounds
Target: Phosphatidylinositol 4,5-bisphosphate 3-kinase catalytic subunit alpha isoform (Homo sapiens)
Sequence (P42336 whole entry, canonical isoform): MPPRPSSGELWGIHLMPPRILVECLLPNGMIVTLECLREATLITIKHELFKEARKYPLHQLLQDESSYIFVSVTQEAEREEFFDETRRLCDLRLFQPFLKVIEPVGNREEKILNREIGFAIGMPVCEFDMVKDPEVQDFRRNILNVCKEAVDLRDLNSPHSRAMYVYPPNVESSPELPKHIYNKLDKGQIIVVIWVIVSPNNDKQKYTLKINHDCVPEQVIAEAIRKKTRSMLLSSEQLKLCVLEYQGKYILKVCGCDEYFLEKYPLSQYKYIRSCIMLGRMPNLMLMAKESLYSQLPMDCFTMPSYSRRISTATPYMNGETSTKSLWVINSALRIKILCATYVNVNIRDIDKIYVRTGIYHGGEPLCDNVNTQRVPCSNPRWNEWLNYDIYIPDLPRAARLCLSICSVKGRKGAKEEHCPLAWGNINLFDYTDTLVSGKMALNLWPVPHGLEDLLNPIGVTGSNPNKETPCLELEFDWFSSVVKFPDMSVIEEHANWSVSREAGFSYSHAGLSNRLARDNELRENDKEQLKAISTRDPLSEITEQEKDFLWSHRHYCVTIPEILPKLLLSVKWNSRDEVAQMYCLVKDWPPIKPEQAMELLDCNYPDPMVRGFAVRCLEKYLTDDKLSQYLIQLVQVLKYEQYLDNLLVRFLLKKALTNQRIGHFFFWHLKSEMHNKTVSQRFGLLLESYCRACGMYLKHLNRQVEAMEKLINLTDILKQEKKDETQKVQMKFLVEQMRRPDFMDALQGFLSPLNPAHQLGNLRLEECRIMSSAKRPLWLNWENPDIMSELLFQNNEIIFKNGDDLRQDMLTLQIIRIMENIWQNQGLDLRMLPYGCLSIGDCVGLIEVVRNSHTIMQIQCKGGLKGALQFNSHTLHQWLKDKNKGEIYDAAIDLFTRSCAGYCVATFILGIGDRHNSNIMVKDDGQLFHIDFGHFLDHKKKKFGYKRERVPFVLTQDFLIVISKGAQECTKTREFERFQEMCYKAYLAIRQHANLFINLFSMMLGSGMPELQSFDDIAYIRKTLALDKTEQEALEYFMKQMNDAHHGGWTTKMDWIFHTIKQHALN
Assay: Inhibition of PI3K-alpha (unknown origin) using PIP2 as substrate incubated for 1 hr by Kinase-Glo luminescent kinase assay
pIC50: −log10 of the molar value.

| moleculeSmiles | inequalitySymbol | pIC50 |
| --- | --- | --- |
| COc1ncc(-c2ccc3nccc(C#CCN(C4CCCCC4)C4CCCCC4)c3c2)cc1NS(=O)(=O)c1ccc(F)cc1F | < | 7.00 |
| COc1ncc(-c2ccc3nccc(C#CCN(C)C)c3c2)cc1NS(=O)(=O)c1ccc(F)cc1 | = | 7.49 |
| CCOC(=O)N1CCN(CC#Cc2ccnc3ccc(-c4cnc(OC)c(NS(=O)(=O)c5ccc(F)cc5F)c4)cc23)CC1 | = | 8.26 |
| COc1ncc(-c2ccc3nccc(C#CCN4CCC(C)CC4)c3c2)cc1NS(=O)(=O)c1ccc(F)cc1F | = | 7.15 |
| COc1ncc(-c2ccc3nccc(C#CCN4CCCCC4)c3c2)cc1NS(=O)(=O)c1ccc(F)cc1F | = | 7.43 |

// data source = ChEMBL document CHEMBL3763019
